Assay: protein stability index of a GFP-peptide fusion (GPS, HEK-293T) (PSI 1-6); higher = more stable;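 further: 24-mer peptide tiles fused after GFP, lentivirally expressed, FACS-sorted into six equal bins by GFP/DsRed ratio, decoded by Illumina sequencing, PSI is the read-weighted mean bin number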
Conditions: treatment: DMSO; c terminus: a fixed tail appended
Cut-off 4 on protein stability index, inclusive. At or above means y; below means n.

| polymer-sequence | group |
| --- | --- |
| GEPGAAAPAMYDDESAIDFSAYID [CEBPD] | y |
| VQRSPWLMMRMGILGRGLQEYQLP [TCAP] | n |
| STQTKKLSASSPRMLHRSTQTTND [ZMYND11] | y |
| AVKDGLIVETLTVGCKGSKAGIEQ [ZMYND11] | n |
| LSDREVVNLFLHFTVNPKPRVEYI [BTBD1] | n |
| DMTFEEEAQLLQLKVKCLNNLAAS [FKBP8] | n |
| MTVEEIYKDRQKFSEQVFKVASSD [FLOT1] | n |
